Reference for the values: the supplement of paper PMC10567573

Assay: protein stability index of a GFP-peptide fusion (GPS, HEK-293T) (PSI 1-6); higher = more stable;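 note: 24-mer peptide tiles fused after GFP, lentivirally expressed, FACS-sorted into six equal bins by GFP/DsRed ratio, decoded by Illumina sequencing, PSI is the read-weighted mean bin number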
Conditions: treatment: MLN4924 1 uM, 8 h; c terminus: a fixed tail appended
endpoint_label: protein stability index

{"sequence_text": "ENILADNSVNDQTKILVVNAAYFV [SERPINB5]", "obs_value": 2.34}
{"sequence_text": "GHPVGLALEAAVHVQKLSQECLKQ [TRIM14]", "obs_value": 3.14}
{"sequence_text": "DKERAVLLQRRKRENMSDGDTSAT [KMT2E]", "obs_value": 5.39}
{"sequence_text": "VSGGSRSLNMSRRDSESTRHDSET [PHTF1]", "obs_value": 5.5}
{"sequence_text": "SSFPGSLPQETNLTLKVCKPQAPQ", "obs_value": 4.14}

###

Assay: protein stability index of a GFP-peptide fusion (GPS, HEK-293T) (PSI 1-6); higher = more stable
Conditions: treatment: DMSO; c terminus: a fixed tail appended
Note to self: values exactly at 5 are 1. So protein stability index at or above 5 is 1, below is -1.

{"sequence_text": "RSLNEEHSKQYRCLSFQPECSMKL [VDR]", "class_name": -1}
{"sequence_text": "PHMAEQTFEQAIQAASRIIRNEQF [CDC25B]", "class_name": -1}
{"sequence_text": "PETAHPNLVLSEDRKSVKFVETRL [TRIM39]", "class_name": -1}
{"sequence_text": "GSDAEQSTSGQPYPTSDQEGDPGS [LCOR]", "class_name": 1}
{"sequence_text": "ILSGARVNAKDNMWLTPLHRAVAS [ANKRD44]", "class_name": -1}

###

Test: protein stability index of a GFP-peptide fusion (GPS, HEK-293T) (PSI 1-6); higher = more stable
Settings: treatment: MLN4924 1 uM, 8 h; c terminus: a fixed tail appended
Entries and their protein stability index

{"sequence_text": "AETAGAIMAFFLCLGLALGAVFSF [SLC29A1]", "protein stability index": 3.03}
{"sequence_text": "YDGYRLRVEFPRSGRGTGRGGGGG [SRSF1]", "protein stability index": 3.99}
{"sequence_text": "PQKASAPAADPPRYTFAPSVSLNK [PDLIM7]", "protein stability index": 4.32}
{"sequence_text": "SDYISEFRFAPNHTKELEDKVIEL [EPB41L3]", "protein stability index": 3.44}
{"sequence_text": "AYDEALAELHAHGPAAFVDYFERN [ZSWIM9]", "protein stability index": 3.74}
{"sequence_text": "YHPVKIGDLFNGRYHVIRKLGWGH [SRPK2]", "protein stability index": 2.24}
{"sequence_text": "KAVANMQGEMDRKCKQVKEKCKEE [ZMYND11]", "protein stability index": 5.31}
{"sequence_text": "RSKYDYLMILRRVVNESTVCLMGH [TENT5C]", "protein stability index": 2.52}
{"sequence_text": "PALAPVPRNSCITCPQCHRSLILD [TRIM9]", "protein stability index": 3.37}
{"sequence_text": "NWGQDPGVSANASKAWHQKSHFQN [PBXIP1]", "protein stability index": 3.43}
{"sequence_text": "SPGLSYASHTVGFTPPTSLTRAGM [CCDC6]", "protein stability index": 3.37}
{"sequence_text": "IRLGIEGYPTYKEKVKKRPGGRPE [BTBD10]", "protein stability index": 3.42}
{"sequence_text": "RYVYRFVCDLQSLLGYTPEELHAM [ETS1]", "protein stability index": 2.5}
{"sequence_text": "FRQFGYQDSPGPHEALSRLWELCH [ZNF396]", "protein stability index": 2.31}
{"sequence_text": "LAIDAIHQLGFIHRDIKPDNLLLD [STK38L]", "protein stability index": 2.04}
{"sequence_text": "GVSFHIDSAELEPGSQTAVKNSNR [FBXO34]", "protein stability index": 5.03}
{"sequence_text": "KSMKPYNYCSAYESFYESTSPECA [NEUROD6]", "protein stability index": 3.23}
{"sequence_text": "MATITCTRFTEEYQLFEELGKGAF [CAMK2A]", "protein stability index": 2.44}
{"sequence_text": "ENAAFKDVALVLTVLLEEETLEAS [TOR1AIP2]", "protein stability index": 2.4}
{"sequence_text": "TVLVSVTVFDANDNAPVFTLPEYR [PCDHGA10]", "protein stability index": 2.58}
{"sequence_text": "DVKVGGSKYGIINLQSLKTPTLKV [DCAF4]", "protein stability index": 2.65}
{"sequence_text": "KGDSTIRELKAKLSGVEEELQRTK [SASS6]", "protein stability index": 4.58}
{"sequence_text": "DANLDECIPATVRSSFANQGEICL [ALDH8A1]", "protein stability index": 4.19}
{"sequence_text": "SELPFVPNYLANPAFPFIYTPTAE [ANKRD40]", "protein stability index": 2.95}
{"sequence_text": "RRAGEGRRSPRPDHPGTPPHKTFR [WEE1]", "protein stability index": 4.83}
{"sequence_text": "KKIVHYTCFDQRKRANAAFLIGAY [CDC14A]", "protein stability index": 2.07}
{"sequence_text": "GLTFLLPFLFFGHFWQLFNALTLF [TMEM120A]", "protein stability index": 2.63}
{"sequence_text": "KWDGKSTTIKRKREDDKLVVECVM [FABP4]", "protein stability index": 2.83}
{"sequence_text": "GHTPLMEAGSAGHVEVARLLLENG [ANKRD17]", "protein stability index": 4.17}
{"sequence_text": "GTKQGHLLLYRIRKDVGCNRFEVT [VPS39]", "protein stability index": 2.41}
{"sequence_text": "DAKARKQEIIKTTEQLIEAVNNGD [CAMK2B]", "protein stability index": 5.26}
{"sequence_text": "PNLTYVYPHTRIQSLVSILRTTVH [CLCN6]", "protein stability index": 2.23}
{"sequence_text": "FAQRTFDYELLQMLQIVVGVRDSG [PCDHGC5]", "protein stability index": 2.74}
{"sequence_text": "DGMLYILGGEDGEKELISMECYDI [GAN]", "protein stability index": 2.26}
{"sequence_text": "QFYMFGWTHVTLLIVVTQSHLVIH [CDS2]", "protein stability index": 3.31}
{"sequence_text": "AWTLINLSFAAKQRELHSHVTNAM [DHCR7]", "protein stability index": 3.05}
{"sequence_text": "GCSAVLSGGSSSSFRAGSKGLSGG [KRT71]", "protein stability index": 3.48}
{"sequence_text": "LCNLGKERFLELAPDFVGDILWEH [ETS2]", "protein stability index": 2.28}
{"sequence_text": "QQNEDLRRMAESLRIPEGPIDQGP [FUT8]", "protein stability index": 4.94}
{"sequence_text": "QGGEYLPKPEPPQLVLAYDYSREV [FEM1A]", "protein stability index": 4.12}
{"sequence_text": "SGCLRISIQKLSNESRYMIYEFWE [NECAB1]", "protein stability index": 2.64}
{"sequence_text": "VNLQHLDLLNNKLVTLPVSFAQLK [LRRC59]", "protein stability index": 2.31}
{"sequence_text": "ELQQELSLKDQERVAEVSRVRVEL [LRRC45]", "protein stability index": 3.78}
{"sequence_text": "PSAELVQTRMAVSLTAAETLALQG [ZNF232]", "protein stability index": 3.23}
{"sequence_text": "RHLERKAWVANFERPRMNANSLLA [CRY1]", "protein stability index": 3.1}

###

Assay: protein stability index of a GFP-peptide fusion (GPS, HEK-293T) (PSI 1-6); higher = more stable
Conditions: treatment: MLN4924 1 uM, 8 h; c terminus: a fixed tail appended
Entries and their protein stability index

{"sequence_text": "KESNANPIFMRKDTKMSFQWRIRN [DPCD]", "protein stability index": 3.01}
{"sequence_text": "SKGMQDFNYLHTNCFEITLELSCD [CPN1]", "protein stability index": 2.72}
{"sequence_text": "NAGISFSVKKQGETVADVRTLPNA [MLH1]", "protein stability index": 4.11}
{"sequence_text": "VDTLTFQSQSLRDRARRFEEALRK [MTUS2]", "protein stability index": 4.14}
{"sequence_text": "SFTQGEGARPLSTRVPRAAIVFTD [MATN2]", "protein stability index": 3.55}
{"sequence_text": "PLCMAVLTTASIIQLGVTPPGYSA [SLC6A17]", "protein stability index": 2.94}
{"sequence_text": "QQSDLGQYVTFLRSFSDKQKISLL [ALG2]", "protein stability index": 2.29}
{"sequence_text": "GGNPFAEPSELDNPFQDPAVIQHR [SCAMP3]", "protein stability index": 4.98}
{"sequence_text": "DSVPFHLGWNSTERSLRLQARYHD [MYORG]", "protein stability index": 3.51}
{"sequence_text": "CKSGYHPTKSHSFRAMCQNGKLVY [CFHR2]", "protein stability index": 2.38}
{"sequence_text": "IGKWFDFKLFFNGRPGIVAWTLIN [DHCR7]", "protein stability index": 2.46}
{"sequence_text": "HEEQLQRLKLLKDREVDAATSATS [FBF1]", "protein stability index": 5.25}
{"sequence_text": "GNSISISALQSLLQHLIGLSNLTH [PRAME]", "protein stability index": 2.62}
{"sequence_text": "LLEATGGAAGRSHHLDEDEERERI [KCTD10]", "protein stability index": 5.41}
{"sequence_text": "FRIIDSDHSGFISLDEFRQTWKLF [PPEF2]", "protein stability index": 2.37}
